Origin of measurements: PubChem BioAssay (NCI)

System: SF-295 CNS
Experiment: NCI-60 one-dose screen, 48 h (100 = growth as untreated, 0 = no growth, -100 = all killed)
Conditions: 10 µM
The panel holds about 83,000 compounds, 20% with a hit somewhere; the sample as a whole holds those more often.
Reported endpoint: growth (%)
Please state the figure in %; there is no need to write the unit.

Solved cases below.
• CCCCN(CCCC)CCCO = 124
• CC1(O)OC(COc2ccc(Cl)cc2)COC1O (stereo not given) = 103
• CCc1nc(N)nc(N)c1-c1ccc(Cl)cc1 = 37.5
• Cc1c(O)cccc1O = 98.2
• CC(C)=NNC(N)=S = 85.4
• Cc1cc2nc(CO)[nH]c2cc1C = 121
• NCC(=O)CCC(=O)O = 106
• NC(=S)NN=C1CCCC1 = 95.7
• COC(=O)c1ccccc1Br = 95.1
• S=c1[nH]ccn1-c1ccccc1Cl = 100

Qu. Provide growth value for the following molecule: CC(=O)OC(OC(C)=O)C1CCCO1 (stereo not given)
Ans. 112

Qu. Output growth of OCC1OC(OC2C(O)C(CO)OC2(CO)OC2OC(CO)C(O)C(O)C2O)C(O)C(O)C1O (stereo not given)
Ans. 131

Qu. Retrieve growth measured for COC(=O)c1ccc(NC(=O)CCl)cc1 and print it.
Ans. 69.3

Qu. Give growth for the following molecule: Nc1ccc(C(=O)c2ccc(N)c(Br)c2)cc1Br
Ans. 17.6

Qu. Using known records, supply growth for C[N+](C)(C)C(=O)c1ccccc1
Ans. 114
